tested_target: T1, human insulin receptor (HIR) (human, UniProt P06213-2 28-1370, limits assumed)
T1 construct: detergent-solubilised receptor
T1 sequence (P06213 other isoform, or with tags, fused parts or gaps limits assumed): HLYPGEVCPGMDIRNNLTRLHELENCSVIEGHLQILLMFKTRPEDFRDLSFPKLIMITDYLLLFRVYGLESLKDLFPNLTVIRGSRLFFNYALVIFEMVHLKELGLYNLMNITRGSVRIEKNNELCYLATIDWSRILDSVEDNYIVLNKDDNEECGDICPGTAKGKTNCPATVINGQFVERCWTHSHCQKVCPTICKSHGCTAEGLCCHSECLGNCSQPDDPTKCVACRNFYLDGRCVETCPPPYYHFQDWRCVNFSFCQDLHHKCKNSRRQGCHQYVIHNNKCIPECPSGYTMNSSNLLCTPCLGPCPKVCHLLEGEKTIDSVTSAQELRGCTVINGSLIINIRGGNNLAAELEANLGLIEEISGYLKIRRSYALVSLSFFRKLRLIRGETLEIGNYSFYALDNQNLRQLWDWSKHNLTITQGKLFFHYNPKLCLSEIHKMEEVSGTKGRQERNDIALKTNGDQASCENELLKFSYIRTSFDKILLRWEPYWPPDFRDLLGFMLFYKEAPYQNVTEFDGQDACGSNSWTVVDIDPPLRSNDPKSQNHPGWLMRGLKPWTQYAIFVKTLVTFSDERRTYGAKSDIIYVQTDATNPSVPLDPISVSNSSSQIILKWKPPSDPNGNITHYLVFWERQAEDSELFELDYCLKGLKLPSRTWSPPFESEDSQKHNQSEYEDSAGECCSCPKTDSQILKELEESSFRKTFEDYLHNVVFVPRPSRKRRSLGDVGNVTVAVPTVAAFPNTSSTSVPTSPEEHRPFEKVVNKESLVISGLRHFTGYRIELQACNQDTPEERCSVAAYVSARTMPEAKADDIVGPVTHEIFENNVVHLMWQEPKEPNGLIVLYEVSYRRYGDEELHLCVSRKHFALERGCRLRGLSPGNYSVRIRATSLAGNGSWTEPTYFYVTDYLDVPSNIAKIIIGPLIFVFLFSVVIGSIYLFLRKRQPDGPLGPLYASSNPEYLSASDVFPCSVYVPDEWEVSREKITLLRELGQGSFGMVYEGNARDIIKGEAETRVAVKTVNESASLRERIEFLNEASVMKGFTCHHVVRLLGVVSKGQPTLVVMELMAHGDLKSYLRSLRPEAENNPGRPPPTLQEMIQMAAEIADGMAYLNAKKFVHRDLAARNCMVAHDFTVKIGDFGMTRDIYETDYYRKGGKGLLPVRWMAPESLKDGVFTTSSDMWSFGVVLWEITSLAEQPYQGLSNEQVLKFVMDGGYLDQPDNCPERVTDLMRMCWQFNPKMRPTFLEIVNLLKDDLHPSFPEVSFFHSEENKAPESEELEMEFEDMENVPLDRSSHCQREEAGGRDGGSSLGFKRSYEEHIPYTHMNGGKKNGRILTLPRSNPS
test_description: 125I-insulin competition on purified HIR
recorded_endpoint: pKd
API: returns pKd as number; meaning -log10 of concentration in mol/L.

Short answer for GIISQSCPESFYDWFAGQVSDPWWCW (also called G33) [S326] : pKd was 6.23

Notebook: GSLDESFYDWFERQL [S395] , pKd read as 7.09

Just so you know, measured pKd for TFYSCLASLLTGTPQPNRGPWERCRKK [S327] came out at 7.68
